Reported IC50 values for a set of compounds
System: MCF-7 cells
METHOD DESCRIPTION: MTT cytotoxicity assay, MCF-7
Format: cell-based
RECORDED CONDITIONS: Homo sapiens, MCF7, 72 h, mean ± SD of three independent experiments
ENDPOINT: IC50

COMPOUND	REPORTED VALUE
CO[C@@H]1C[C@@]2(C)[C@@H](CC[C@]3(C)[C@@H]2CC=C2[C@@H]4[C@@H](C)[C@H](C)CC[C@]4(C(=O)NCc4ccccc4)CC[C@]23C)[C@](C)(C(=O)N2CCN(C)CC2)[C@H]1O [Compound 13k]	2.85 µM
CO[C@@H]1C[C@@]2(C)[C@@H](CC[C@]3(C)[C@@H]2CC=C2[C@@H]4[C@@H](C)[C@H](C)CC[C@]4(C(=O)NCc4ccccc4)CC[C@]23C)[C@](C)(C(=O)N(C)C)[C@H]1OC(C)=O [Compound 14j]	5.89 µM
CO[C@@H]1C[C@@]2(C)[C@@H](CC[C@]3(C)[C@@H]2CC=C2[C@@H]4[C@@H](C)[C@H](C)CC[C@]4(C(=O)NCc4ccccc4)CC[C@]23C)[C@](C)(C(=O)N2CCN(C)CC2)[C@H]1OC(C)=O [Compound 14k]	1.78 µM
COC(=O)[C@@]1(C)[C@@H]2CC[C@]3(C)[C@H](CC=C4[C@@H]5[C@@H](C)[C@H](C)CC[C@]5(C(=O)NCc5ccccc5)CC[C@]43C)[C@@]2(C)C[C@@H](OC)[C@@H]1OC(C)=O	3.99 µM
